- measurement.protocol: growth suppression of beta-catenin knockout HCT116, pilot screen, human colon tumor cells (AID 823);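 also: 0% = wells killed by 20 µM Hyamine and 100% = untreated DMSO cell wells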
- condition.label: CellTiter-Glo, 60 h, at 10 µM, stronger effect = lower value
Results filed as inconclusive are left out.
Quick reference: viability of the listed items.
attribute.measured: viability (%)

compound="CC(C)=C1C2C=CC1C(C(=O)Nc1cc(C)ccc1C)C2C(=O)O (configuration not stated)" meas_value=87.4
compound=CSc1nc(N(CCO)CCO)c2sc3nc(-c4ccco4)c4c(c3c2n1)CCC4 meas_value=93.9
compound=Cc1cc(S(=O)(=O)N2CCN(Cc3ccccc3)CC2)c(C)s1 meas_value=77.1
compound="CC(=O)C1=C(C)NC(SCC(=O)c2ccccc2)=C(C#N)C1c1ccco1 (configuration not stated)" meas_value=55
compound=Cc1cc(C)nc(SCC(=O)Nc2ccc(S(=O)(=O)Nc3onc(C)c3C)cc2)n1 meas_value=109
compound=CCC(=O)N1CCc2cc(Br)cc(S(=O)(=O)CCC(=O)NCc3ccco3)c21 meas_value=94.9
compound="Cc1ccc(CC2C(=O)N(c3ncccn3)C(=O)C2C)cc1 (configuration not stated)" meas_value=104
compound=O=C(CCCN1C(=O)c2ccccc2C1=O)Nc1ccccc1C(=O)N1CCOCC1 meas_value=102
compound=C=C(C)Cn1c(CCNC(=O)C(C)(C)C)nc2ccccc21 meas_value=100
compound=COc1cccc(C(=O)Nc2ccc(-c3nc4ccccc4o3)c(O)c2)c1 meas_value=30.4
compound=CN(C)CCCNCCCNC(=O)/C(=N\O)c1ccccn1 meas_value=93.3
compound="O=C1C2C3C=CC(C3)C2C(=O)N1c1ccccc1 (configuration not stated)" meas_value=100
compound=COC(=O)C1=C(C)N(Cc2cccnc2)C(=O)C1 meas_value=98.7
compound="CCCc1[nH]nc2c1C(C1CC=CCC1)C(C#N)=C(N)O2 (configuration not stated)" meas_value=11.9
compound=CC1(C)Cc2c(sc3nc(SCC(=O)N4CCOCC4)nc(N)c23)CO1 meas_value=98.9
compound=CCn1c(CNC(=O)C(C)(C)C)nc2ccccc21 meas_value=104
compound=O=C(CSc1nnc(Cc2cc(=O)[nH]c(=O)[nH]2)n1-c1ccccc1)N1CCCCC1 meas_value=99.7
compound=Cc1ncc(CO)c2cc(S(=O)(=O)c3ccc(F)cc3)c(=O)oc12 meas_value=104
compound=Cc1ccc2c(CC(=O)O)coc2c1C meas_value=88
compound="COc1ccc(C2c3sc(=O)[nH]c3SC3C(=O)N(c4ccccc4)C(=O)C32)cc1 (configuration not stated)" meas_value=99.9
compound=Cc1cc(NC(=O)CSc2ccc3nnc(-c4ccccn4)n3n2)no1 meas_value=102
compound="CC1CCN(c2c(NCc3ccc(C(=O)NCC4COc5ccccc5O4)cc3)c(=O)c2=O)CC1 (configuration not stated)" meas_value=86.2

* * *

- measurement.protocol: reversal of MRP1-mediated doxorubicin resistance, pilot screen, H69AR cells, doxorubicin co-treatment (AID 601)
- condition.label: H69AR cells + 2 uM doxorubicin, CellTiter-Glo, 72 h; measured here: viability with 2 uM doxorubicin; at 10 µM; stronger effect = lower value
attribute.measured: viability

compound=CCOC(=O)c1ccc(-n2c(=O)[nH]c3ccccc3c2=O)cc1 attribute_measured=viability meas_value=90.4%
compound=COc1cccc(-c2nc(CSCC(=O)N3CCc4ccccc43)c(C)o2)c1 attribute_measured=viability meas_value=97.1%
compound=Cc1onc(-c2ccccc2Cl)c1C(=O)Nc1cccnc1 attribute_measured=viability meas_value=94.2%
compound=CCN(CC)c1ccc(NC(=O)CN2CCN(CC(=O)Nc3ccccc3F)CC2)cc1 attribute_measured=viability meas_value=88.6%
compound=c1ccc(-c2nn3c(Cn4nnc5ccccc54)nnc3s2)nc1 attribute_measured=viability meas_value=91.5%
compound=CCOc1ccc2nc(S(N)(=O)=O)sc2c1 attribute_measured=viability meas_value=60.4%
compound=CC(C)N(C(=O)COC(=O)c1ccc(O)cc1)C(C)C attribute_measured=viability meas_value=87.8%
compound=CCN(CC)C(=O)Cn1c(=O)n(Cc2ccccc2Cl)c2c1c(=O)n(C)c(=O)n2C attribute_measured=viability meas_value=89.5%
compound="COc1ccc(C2CNC(=O)C2)cc1OC1CCCC1 (stereo unspecified)" attribute_measured=viability meas_value=90.6%
compound=O=C(Nc1ccccc1C(F)(F)F)c1cc(S(=O)(=O)N2CCOCC2)ccc1F attribute_measured=viability meas_value=81.5%
compound=CN(C)S(=O)(=O)Nc1ccc(Br)cc1F attribute_measured=viability meas_value=88.5%

* * *

Recorded measurements of Her2 level, one per entry
- target.or.test.system: Receptor tyrosine-protein kinase erbB-2 (Homo sapiens)
- measurement.protocol: reducers of endogenous Her2 protein level, primary screen, SKBR3 breast tumor cells, AlphaScreen, ATP viability (AID 461);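 also: lower value means less Her2 protein in the cells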
- condition.label: 18-24 h, at 10 µM, stronger effect = lower value
attribute.measured: Her2 level (%)

compound=Nc1nc2ccccc2n1C(=O)CCc1ccccc1 attribute_measured="Her2 level" meas_value=83.5
compound=Cn1c(-n2c(-c3ccco3)nc3ccccc3c2=O)nc2ccccc21 attribute_measured="Her2 level" meas_value=98
compound=Cc1cc(C)n(S(=O)(=O)Cc2ccccc2)n1 attribute_measured="Her2 level" meas_value=135
compound="COc1cccc(NC(=O)N2CCCC2C(=O)NC(C)C)c1 (centres undefined)" attribute_measured="Her2 level" meas_value=78
compound=CCN(CC)S(=O)(=O)c1ccc2c(c1)c(=O)c(C(=O)NCCOC)cn2C attribute_measured="Her2 level" meas_value=99.5
compound=Cc1ccc(-n2nnnc2SCC(=O)Nc2c(C)n(C)n(-c3ccccc3)c2=O)cc1 attribute_measured="Her2 level" meas_value=104
compound=Cc1cc(C)c(S(=O)(=O)Nc2cccnc2)c(C)c1 attribute_measured="Her2 level" meas_value=91
compound="COC(=O)C(C)C1Sc2ccccc2NC1=O (centres undefined)" attribute_measured="Her2 level" meas_value=100
compound="CCOc1ccccc1NC(=O)N1C2CCCC1CC(NC(=O)C1CC1)C2 (centres undefined)" attribute_measured="Her2 level" meas_value=95
compound=CN(CCc1ccccn1)C(=O)CCNC(=O)Cn1cnc2ccccc2c1=O attribute_measured="Her2 level" meas_value=97.5
compound=CCOc1ccccc1C(=O)N1CCN(c2cccc(Cl)c2)CC1 attribute_measured="Her2 level" meas_value=80
compound=Cn1c(SCC(=O)O)nnc1C1CCCCC1 attribute_measured="Her2 level" meas_value=110
compound=Cc1ccc(-c2cc(C(=O)NCc3ccc4c(c3)OCO4)no2)cc1 attribute_measured="Her2 level" meas_value=77
compound=COC(=O)c1[nH]c2cc(OC)ccc2c1NC(=O)CN1CCOCC1 attribute_measured="Her2 level" meas_value=90.5
compound=COc1cccc(NS(=O)(=O)c2cc(C)sc2C)c1 attribute_measured="Her2 level" meas_value=94
compound=Cc1nc2ccc(NC(=O)N3CCSCC3)cc2s1 attribute_measured="Her2 level" meas_value=107
compound="CS(=O)(=O)N1CCCC(C(=O)NCc2ccccc2Cl)C1 (centres undefined)" attribute_measured="Her2 level" meas_value=89
compound=CCn1c(C)cc(=S)c2ccccc21 attribute_measured="Her2 level" meas_value=99.5
compound=COC(=O)c1sc2ccccc2c1NC(=O)c1cccs1 attribute_measured="Her2 level" meas_value=99.5
compound=Cn1c(=O)c2c(nc(NCCCO)n2C/C=C/c2ccccc2)n(C)c1=O attribute_measured="Her2 level" meas_value=70.5
compound=COc1ccc(-c2nnc(SCC(=O)Nc3ccc(Cl)cc3)n2C)cc1 attribute_measured="Her2 level" meas_value=104
compound="CC1=CCC(C(C)(C)NC(=O)c2ccccc2)C/C1=N\\O (centres undefined)" attribute_measured="Her2 level" meas_value=98.5
compound=COCCNc1nc(C(C)(C)C)nc2c1nnn2Cc1ccccc1Cl attribute_measured="Her2 level" meas_value=86.5
compound=COCCn1c(SCC(=O)Nc2sc(C)c(C)c2C#N)nnc1C(C)C attribute_measured="Her2 level" meas_value=92.5

* * *

- measurement.protocol: growth suppression of beta-catenin knockout HCT116, pilot screen, human colon tumor cells (AID 823);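 also: 0% = wells killed by 20 µM Hyamine and 100% = untreated DMSO cell wells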
- condition.label: CellTiter-Glo, 60 h, at 10 µM, stronger effect = lower value
Inconclusive results are not listed.
attribute.measured: viability (%)

molecule=COc1cc(OC)c(NC(=O)c2ccc(Br)o2)cc1Cl units_text=% meas_value=69.8
molecule=Cc1cccc(-n2c(Cc3cc(=O)[nH]c(=O)[nH]3)nnc2SC(C)C)c1 units_text=% meas_value=101
molecule="CCOC(=O)C1=C(C)Nc2nc(C)nn2C1c1ccc(OCC)c(OC)c1 (stereo not given)" units_text=% meas_value=101
molecule="CC(=O)N1c2ccccc2C(=O)C1N1CCCCC1 (stereo not given)" units_text=% meas_value=93.1
molecule=O=C(CSCC(=O)NC1CC1)Nc1ccccc1 units_text=% meas_value=98.2
molecule="COc1ccc(NC(=O)C2CCCN2S(=O)(=O)c2ccc(F)cc2)cc1 (stereo not given)" units_text=% meas_value=109
molecule=CCOC(=O)Cn1c(C)cc(=O)c2cccc(C)c21 units_text=% meas_value=92
molecule="COc1cccc(C2CC(c3cccc(C)c3)n3ncnc3N2)c1 (stereo not given)" units_text=% meas_value=90
molecule="CCOC(=O)C1C(=O)CC(C)(O)C(C(=O)OCC)C1/C=C/c1ccccc1 (stereo not given)" units_text=% meas_value=94.4
molecule=Cn1cnnc1SCc1ccc(C(=O)O)cc1 units_text=% meas_value=98.1
molecule=COc1ccc(CNc2oc(C)nc2C#N)cc1 units_text=% meas_value=98.6
molecule="CCCCCSc1nnc2c(n1)OC(C)N(C(C)=O)c1ccccc1-2 (stereo not given)" units_text=% meas_value=82.8
molecule="CC(CCc1ccco1)NC(=O)Cn1nc(Cc2ccncc2)c2ccccc2c1=O (stereo not given)" units_text=% meas_value=89.4
molecule=O=C(NCc1ccccc1)c1ccc(CN2CCOCC2)cc1 units_text=% meas_value=100
molecule="COc1ccc(CN2CCNC(=O)C2CC(=O)O)cc1OC (stereo not given)" units_text=% meas_value=105
molecule=Cc1ccc(-c2c(C(=O)N3CCOCC3)oc(=O)c3ccccc23)cc1 units_text=% meas_value=95.6
molecule="COc1ccc(N2CSC3=C(C#N)C(c4cc(OC)c(OC)cc4OC)CC(=O)N3C2)c(OC)c1 (stereo not given)" units_text=% meas_value=71.6
molecule="Cc1ccc2oc3c(c(=O)c2c1)C(c1cccc(Cl)c1)N(CCCN1CCOCC1)C3=O (stereo not given)" units_text=% meas_value=76.8
molecule=Cc1ccc(S(=O)(=O)CNC(=O)c2ccccc2)cc1 units_text=% meas_value=97.8
molecule=c1cncc(-c2nnc(SCc3cccc4ccccc34)o2)c1 units_text=% meas_value=103
molecule=Cc1ccccc1-c1nc(CN2CCC(C(=O)N3CCN(c4ccccn4)CC3)CC2)c(C)o1 units_text=% meas_value=61.6
molecule=COc1cccc(-c2nc(CS(=O)(=O)CC(=O)NCc3ccccc3)c(C)o2)c1 units_text=% meas_value=94.8
molecule=COc1cccc2c(=O)n(CC(=O)NC3CCCCC3)ccc12 units_text=% meas_value=103
molecule=O=S(=O)(c1cccs1)n1nnc2ccccc21 units_text=% meas_value=103
molecule=c1ccc2c(c1)nc(N1CCOCC1)c1nnnn12 units_text=% meas_value=109
molecule=O=C(CS(=O)(=O)c1c[nH]c2ccccc12)Nc1ccc2c(c1)OCCO2 units_text=% meas_value=95.7
molecule="COc1ccc(C(C(=O)NC2CCCC2)N2CCc3ccccc32)cc1 (stereo not given)" units_text=% meas_value=92.8
molecule="CCOC(=O)C(C)Sc1nnc(Cc2cc(=O)[nH]c(=O)[nH]2)n1-c1ccc(OCC)cc1 (stereo not given)" units_text=% meas_value=109
molecule="COc1cc(C(=O)Nc2ccc(S(=O)(=O)N3CCCCC3C)cc2)cc(OC)c1OC (stereo not given)" units_text=% meas_value=69.9
molecule=CCCCOC(=O)c1ccc(NS(=O)(=O)c2cc(-c3nnnn3CC)ccc2OC)cc1 units_text=% meas_value=91.5
molecule=CCN(CC)c1ccc(/C=N/n2c(C)cc(C)cc2=O)cc1 units_text=% meas_value=105
molecule="Cc1cccc(Cn2c(N3CCCCC3C)nc3c2c(=O)[nH]c(=O)n3C)c1 (stereo not given)" units_text=% meas_value=89.3
molecule=O=C(CSc1nnc(Cc2cc(=O)[nH]c(=O)[nH]2)n1-c1ccc(Cl)cc1)NC1CCCC1 units_text=% meas_value=108
molecule=NC(=O)C1CCN(c2nc(C3CC3)nc3c2nnn3Cc2ccccc2Cl)CC1 units_text=% meas_value=84.4
molecule="COc1ccccc1-c1nc2n(n1)C(c1ccccc1Cl)C(C(N)=O)=C(C)N2 (stereo not given)" units_text=% meas_value=91
molecule=COc1cc(OC)cc(-c2cc3nc(C)c(CCC(=O)O)c(C)n3n2)c1 units_text=% meas_value=96.6
molecule=CSc1nc(-c2ccccc2)nc2[nH]ccc(=O)c12 units_text=% meas_value=76
molecule="C=CCSC1=C(C#N)C(c2ccc(OCC)cc2)CC(=O)N1 (stereo not given)" units_text=% meas_value=94.5
molecule=COCCN(CCOC)Cc1c(O)ccc2c3c(c(=O)oc12)CCC3 units_text=% meas_value=99.9
molecule=CCN1CCN(CCCNC(=O)c2ccc3c(c2)NC(=O)c2ccccc2S3)CC1 units_text=% meas_value=90.6
molecule=Cc1ccc(S(=O)(=O)N2CCN(C(=O)CSc3nnc(C)s3)C2)cc1 units_text=% meas_value=91.9
molecule="Cc1ccccc1CN1CCNC(=O)C1CC(=O)O (stereo not given)" units_text=% meas_value=105
molecule=CCc1ccc(NC(=O)CN(c2ccc3c(c2)OCO3)S(=O)(=O)c2c(C)noc2C)cc1 units_text=% meas_value=85.5
molecule="Cc1ccsc1C1C2=C(CC(C)(C)CC2=O)Nc2ncnn21 (stereo not given)" units_text=% meas_value=101
molecule="COc1ccc2c(Cl)c(C(=O)NC3CCS(=O)(=O)C3)sc2c1 (stereo not given)" units_text=% meas_value=93.3

Entry source: PubChem BioAssay
